Listing: GI50 of selected compounds
- Tested on: BT-549
- assay: NCI tumour cell line growth inhibition, 48 h
Calls of active or inactive are those of the source. Rule as the data show it: active = GI50 up to about 1.1 µM and inactive = higher.

Recorded GI50, per entry:
compound | target or system | GI50
O=C(Nc1cc2c(=O)[nH]c3ccccc3c2oc1=O)c1cnccn1 | BT-549 | > 100 µM (inactive)
O=C1c2cc3ccccc3cc2C2(c3ccc(Cl)cc3)NCCN12 (configuration not stated) | BT-549 | 54 µM (inactive)
CN1CC2CN(Cc3ccccc3)CCN2c2cccnc21 (configuration not stated) | BT-549 | 33.3 µM (inactive)
COc1cc([C@H]2c3cc(O)c(OC)cc3C[C@]3(O)[C@@H]2CO[C@@H]3O)ccc1O | BT-549 | > 100 µM (inactive)
CCc1nc(N)nc(N)c1-c1ccc(Cl)c([N+](=O)[O-])c1 | BT-549 | 31.2 µM (inactive)

Memo: Cc1nn(C(=O)c2ccc(Cl)cc2)c2c1C(c1ccco1)SC(=N)N2 (configuration not stated) , reported GI50: > 10 µM (inactive)

Entry CCO/C=N/NC(=O)CSc1nc2ccc(I)cc2c(=O)n1Cc1ccccc1 , GI50 reported as > 100 µM (inactive)

====

Measured GI50 of individual entries
- Tested on: SNB-19
- assay: NCI tumour cell line growth inhibition, 48 h
The source made the active and inactive calls. Cut-off read from the data, not from the text of the source: active = GI50 up to about 1.1 µM and inactive = higher.

molecule | meas value
CC1(C)COC(c2cccnc2/C=N/O)=N1 | > 100 µM (inactive)
BrCCCCCOc1ccc(-c2c3ccccc3c(-c3ccc(OCCCCCBr)cc3)c3ccccc23)cc1 | > 100 µM (inactive)
COc1ccc(NC(=O)C(=O)C(C(=O)c2ccccc2)C2OC(=O)c3ccccc32)c([N+](=O)[O-])c1 (stereo not given) | > 100 µM (inactive)

Record CC1=C(C(=O)NCc2ccccc2)C(c2ccc([N+](=O)[O-])cc2)C(C(=O)NCc2ccccc2)=C(C)N1 , field GI50: 65.2 µM (inactive)

Lab note: measured GI50 of CC1=CC(=O)NP(=O)(Oc2ccc(Cl)cc2)N1 (stereo not given) was > 100 µM (inactive)

====

- System: SN12C
- assay: NCI tumour cell line growth inhibition, 48 h
Activity calls are given as the source filed them. Rule as the data show it: active = GI50 up to about 1.1 µM and inactive = higher.
Reply using exactly one outcome from Y = active, N = inactive

compound | classification
CC(C)C(/C=C/c1ccccc1)=N\NC(=O)N/N=C(/C=C/c1ccccc1)C(C)C | N
C=CCN(N=O)C(=O)N(CCCCC(NC(C)=O)C(=O)NCc1ccccc1)Cc1ccccc1 (stereo not drawn) | N
Oc1cc(-c2cccc(C(F)(F)F)c2)nc2cc3c(cc12)OCO3 | N

// return assay outcome for CCOC(=O)C1C/C(C)=C(/C)SCCCS1 (stereo not drawn)
N

Just curious, what result did COc1ccc(/N=N/c2c(O)ccc3ccccc23)cc1 get here?
N

Record lookup: outcome of this test for C=CCc1c(Cl)nc(Cl)nc1Cl ?
Y

Write down the call the test reported for this compound. Item: Cc1c(F)c(N)c2c(=O)cc(-c3ccc(NC(=O)C(N)CCCNC(=N)N)c(F)c3)oc2c1F (stereo not drawn)
N

Query: recorded result category for Cc1ccc2c(=O)cc(-c3cccc(F)c3)[nH]c2n1 in this test
Y

Lab log entry: Nc1ccc2nc(N)n[n+]([O-])c2c1 — outcome as called in the assay?
N

Kindly provide the recorded test outcome for the following compound: O=c1n(-c2ccc(Cl)c(Cl)c2)c(=O)n(-c2ccc(Cl)c(Cl)c2)c(=O)n1-c1ccc(Cl)c(Cl)c1
N

For this compound, state the assay outcome: O=[N+]([O-])c1cccc([N+](=O)[O-])c1Cl
N

Given Nc1nc(N)c(N=O)c(OCC2CCCCC2)n1 , state the outcome it received in this test.
N

// outcome(item) with item = COc1ccc(C(C#N)Cc2cc(OC)c(OC)c(OC)c2)cc1 (stereo not drawn)
N

====

- Test system: IGROV-1
- assay: NCI tumour cell line growth inhibition, 48 h
The source made the active and inactive calls. Cut-off read from the data, not from the text of the source: active = GI50 up to about 1.1 µM and inactive = higher.
Bench note: report the call from YES = active, NO = inactive

compound | classification
Cc1cnc2sn(-c3ccc([N+](=O)[O-])cc3)c(=O)c2c1 | NO
COC(=O)[C@H](CCSC)NC(=O)c1ccc(CNC(=O)/C=C/c2cccc(Oc3ccccc3)c2)cc1 | NO
CCOC(=O)C1C(=O)C=C(c2cc(C)ccc2O)CC1c1cccc(Br)c1 (stereo unspecified) | NO
O=C1CCCc2cc3c(cc21)CC1(C3)Cc2cc3c(cc2C1)C(=O)CCC3 | NO
CN(Cc1cnc2nc(N)nc(N)c2n1)c1ccc(C(=O)NC(CCC(=O)O)C(=O)O)c2ccccc12 (stereo unspecified) | YES
COC(=O)c1c(C)cccc1C1CN=NC12Cc1ccc(C)c(C)c1C2=O (stereo unspecified) | NO

Consider the additional compound presented here.
Tell me the recorded outcome of this test for Cc1cccc2c(=O)cc(-c3ccccc3)[nH]c12 .
NO

====

- Tested on: KM-20L2
- assay: NCI tumour cell line growth inhibition, 48 h
The source made the active and inactive calls. No stated cut-off is given here; in the data, active = GI50 up to about 1.1 µM and inactive = higher.
The categories you may choose from are true (1) = active, false (0) = inactive

For orientation, consider the following solved cases.
compound | target or system | classification
Cc1cccc(C(=O)O)c1C(=O)c1cccc2ccccc12 | KM-20L2 | false (0)
COc1cc2ccc3c4ccccc4cnc3c2cc1OC | KM-20L2 | false (0)
O=C1c2ccccc2OP(=O)(OCC(F)(F)F)OC1(C(F)(F)F)C(F)(F)F (stereo unspecified) | KM-20L2 | false (0)
CC(C)Cc1ccc(C(C)/C=C2\CCC(CN3CCCCC3)C2=O)cc1 (stereo unspecified) | KM-20L2 | false (0)
N#Cc1cc([N+](=O)[O-])ccc1NC(=O)C(=O)C(C(=O)/C=C/c1ccccc1)C1OC(=O)c2ccccc21 (stereo unspecified) | KM-20L2 | false (0)

Please share the test call associated with CC1(C)COC(c2cccnc2/C=N/O)=N1 .
false (0)

# lookup: test call for CSc1ccc(Cc2cc(C(C)(C)C)cc(C(C)(C)C)c2O)cc1
false (0)

How did this test come out for COc1ccc(/C=N\N2C(=O)Cc3ccccc32)cc1 ?
false (0)

What outcome does the record of this test show for COC(=O)C12CCC(CC1=O)C2(C)C (stereo unspecified) ?
false (0)

Returns: the outcome recorded for C/C=C/C=C/c1cc2cc3c(c(O)c2c(=O)[nH]1)C1(CC3)C(=O)c2c(O)c3c(c(O)c2C1=O)C(=O)C(OC)=CC3=O (stereo unspecified) in this assay.
true (1)

Could you please tell me the result logged for C#CCC(O)c1ccccc1C(O)CC#C (stereo unspecified) in this assay?
false (0)

====

- Tested on: HT-29
- assay: NCI tumour cell line growth inhibition, 48 h
Active and inactive are the calls of the source. Cut-off read from the data, not from the text of the source: active = GI50 up to about 1.1 µM and inactive = higher.
A correct response names exactly one class from 1.0 for active, 0.0 for inactive

molecule | classification
Cc1c2cc[n+](CCN3CCCCC3)cc2c(C)c2c1[nH]c1ccc(O)cc12 | 0.0
CC(=O)O[C@H]1C(=O)[C@@]2(C)[C@H]([C@H](OC(=O)c3cccc(C(F)(F)F)c3)[C@]3(O)C[C@H](OC(=O)[C@H](O)[C@@H](NC(=O)c4ccccc4)c4ccccc4)C(C)=C1C3(C)C)[C@]1(OC(C)=O)CO[C@@H]1C[C@@H]2O | 1.0
C=C1CC[C@@]2(OC1)OC1C[C@H]3[C@@H]4CC=C5C[C@@H](O)CC(OC6OCC(OC(=O)[C@@H](O)[C@@H](C)CC)C(OC(C)=O)C6OC6OC(C)C(O)C(O)C6O)[C@]5(C)[C@H]4CC[C@]3(C)C1[C@@H]2C (stereo partly drawn) | 0.0
COc1ccc(-c2c3c(n(C4OC(CO)C(O)C(O)C4O)c(=S)c2C#N)CC(C)(C)CC3=O)cc1 (stereo not drawn) | 0.0
O=C1C(=O)N(c2cccc(C(F)(F)F)c2)C(=O)C(=O)C1c1nc2ccccc2s1 | 0.0
Br/C(=N\N=c1/nn[nH][nH]1)c1ccncc1 | 0.0

For C=C(C(=O)O[C@H]1C/C(C)=C/CC/C(CO)=C/[C@H]2C(=O)OC(=C)[C@H]12)C(O)CO (stereo partly drawn) , which call appears in the assay record?
0.0

Hey, what did the test say about COc1ccc(NC(=O)C(=O)C(C(=O)c2ccccc2)C2OC(=O)c3ccccc32)c([N+](=O)[O-])c1 (stereo not drawn) ?
0.0

Given O=C(NCc1cccnc1)C(=O)NCc1cccnc1 , state the outcome it received in this test.
0.0

// param item: COC(=O)CCc1ccc2c(c1)CC1(C2)Cc2ccc3c(c2C1)CCC3 (stereo not drawn) ; yields the recorded call
0.0

Recorded call for [N-]=[N+]=NC1CC(n2ccc(N)nc2=O)OC1COP(=O)(O)OP(=O)(O)OP(=O)(O)O (stereo not drawn) ?
0.0

Which outcome did this test record for the molecule CC(C)(C)C1CCC2c3c([nH]c4ccccc34)C3C(=O)N(c4cc(Cl)ccc4Cl)C(=O)C3C2C1 (stereo not drawn) ?
0.0

For COc1cc2c(c(OC)c1OC)-c1c(cc3c(c1OC)OCO3)CC(C)C(C)(O)C2OC(=O)c1ccccc1 (stereo not drawn) , which call appears in the assay record?
0.0

For [N-]=[N+]=Nc1c(-c2ccccc2)c(Cl)nc2ccccc12 , which call appears in the assay record?
0.0

Assay result, entry C/N=c1/oc2ccccc2cc1C(N)=O — outcome?
0.0

State the result this test recorded for CC1=NN(c2cccc(Cl)c2)C2(C1=Cc1ccc(N(C)C)cc1)C(Cl)C(=O)N2c1nc2ccccc2s1 (stereo not drawn) .
0.0

Which result was noted for this molecule in the test: COC(=O)[C@H](CCSC)NC(=O)c1ccc(CNC(=O)/C=C/c2cccc(Oc3ccccc3)c2)cc1
0.0

// param item: OCCSCCCSCCO ; yields the recorded call
0.0
